TGT: T1, PUF4 RNA-binding domain (Saccharomyces cerevisiae, UniProt P25339 537-888)
T1 sequence: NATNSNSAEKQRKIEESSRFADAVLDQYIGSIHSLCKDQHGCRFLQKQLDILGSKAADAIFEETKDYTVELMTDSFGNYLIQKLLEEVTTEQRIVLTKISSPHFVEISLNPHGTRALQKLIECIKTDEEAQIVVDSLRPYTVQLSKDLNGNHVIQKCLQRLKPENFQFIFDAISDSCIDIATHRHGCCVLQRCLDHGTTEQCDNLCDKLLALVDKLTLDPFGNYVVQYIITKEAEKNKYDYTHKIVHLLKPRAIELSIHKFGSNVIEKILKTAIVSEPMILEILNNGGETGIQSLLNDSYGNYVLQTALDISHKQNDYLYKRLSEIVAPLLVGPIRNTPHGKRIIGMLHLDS
ASSAY INFO: Mg; RNA-MaP; 20 mM Na-HEPES pH 7.4, 30 mM KOAc, 0.75 mM MgCl2, 0.1% Tween-20, 5% glycerol, 0.1 mg/mL BSA, 2 mM DTT; 25 C; 0.0125-409.6 nM protein
REPORTED CONDITIONS: tags: N-His6-TEV cleaved; C-SNAP kept, Cy3B-labelled; label: tethered on chip by stalled RNA polymerase
RECORDED ENDPOINT: pKd
Answer as the number alone; pKd is minus log10 of concentration in mol/L.

Problem: Query: pKd; subject: Ib_S2_P5E.1_K5.1_C5.1_H5.1_A5.1_F5.1_[T9A]_[A10C]_T5.1 (ssRNA) RNA: UUUGAUUAAUAUGAUAUCGUUCUUUCUUGUAUUAUACUUCUUUCUCGAUAUCAUAUUAAUCUUU
Solution: 8.14

Problem: Sample UCUCUUUGUAAUCCUUCUCUU (ssRNA) [Ic_S1_P4E.1_K4.1_C4.1_H4.1_A4.1_[T5A]_[A6T]_[T7C]_F4.1_[T8C]_[A9T]_T4.1] — what was its pKd?
Solution: 6.31

We next turn to a different binder, shown below.
Problem: // query pKd value for entry UCUCUUGUUAUAUAUCUCUU (ssRNA) [Ib_S1_P3E.1_K3.1_C3.1_H3.1_[T1G]_[G2T]_A3.1_F3.1_T3.1]
Solution: 7.33

Where these numbers come from: paper PMC9352680
